test system: MIWI (PIWIL1) piRISC loaded with Kctd7 piRNA (30 nt); assay: pre-steady-state target cleavage rate (min^-1); MIWI and MILI are mouse PIWI proteins and EfPiwi is from a freshwater sponge; tags in brackets are library labels; higher = faster piRNA-guided slicing of the target; conditions: guide: Kctd7 piRNA 5'p-UGUUAAUCUCUCAGAGAAGGUGACAGUGAU; auxiliary factor: 500 nM mouse GTSF1;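 note: 1 nM active piRISC with 0.1 nM target library at 33 °C single turnover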
Over roughly 6,600 sequences, “pre-steady-state target cleavage rate” has its median near 0.07; the highest 2% begin near 0.72. This is one part of a sample in which the highest values are shown more often than they occur.
Record Y whenever pre-steady-state target cleavage rate is at 0.09 or higher; record N when lower.

Please review the following examples before continuing.
Asked: For this sequence, is measured pre-steady-state target cleavage rate 0.09 or higher? UACACUGUCACCUUCACUGUGAGAUUAACA
Given back: Y

Asked: For this sequence, is measured pre-steady-state target cleavage rate 0.09 or higher? UAGUCUGUCACCUCUCUGAGAGAUUAACA
Given back: Y

Asked: For this sequence, is measured pre-steady-state target cleavage rate 0.09 or higher? UAGUCUGUCACCUCUCUCUGAGAGAUUAACA
Given back: Y

Asked: For this sequence, is measured pre-steady-state target cleavage rate 0.09 or higher? UACACUGCCACCUUCUCUGAGAGAUUAACA
Given back: Y

Asked: For this sequence, is measured pre-steady-state target cleavage rate 0.09 or higher? UAGACUGUCACCUUCUCUCAGAGAUUAACA
Given back: Y

Asked: For this sequence, is measured pre-steady-state target cleavage rate 0.09 or higher? UUACACUGUCACCUUCUCUGAGAGAUUAACA
Given back: Y

Asked: For this sequence, is measured pre-steady-state target cleavage rate 0.09 or higher? UACACUGUCCACCUUCUCUGAGAGAUUAACA
Given back: Y

Asked: For this sequence, is measured pre-steady-state target cleavage rate 0.09 or higher? UAGUCUGUCACCUUCUCUGAGAGAUAAUGA
Given back: N

Continuing:
Asked: For this sequence, is measured pre-steady-state target cleavage rate 0.09 or higher? UUCACUGUCUCCUUCACUGAGAGAUUAACA
Given back: Y

Asked: For this sequence, is measured pre-steady-state target cleavage rate 0.09 or higher? UACACUGCUCACCUUCUCUGAGAGAUUAACA
Given back: Y
